Test: NCI Yeast Anticancer Drug Screen. Data for the cln2 rad14 strain (AID 165)
Details: S. cerevisiae cln2 rad14 strain, at 50.0 µM, stronger effect = higher value
Description: Growth inhibition of yeast strains with defined genetic alterations is measured as a screen for potential anti-cancer activity. Selected strains with alterations in DNA damage repair or cell cycle control were exposed to compounds and growth inhibition was measured relative to vehicle treated controls. The strain used in this assay is cln2 rad14
The panel holds about 79,000 compounds, 15% with a hit somewhere; the sample as a whole holds those more often.
Would you please tag the item met when its growth inhibition is 10% or above, and not met when it is below?

>  <molecule>
CCNC(CC1CCCCC1)C(=O)O (stereo unspecified)

>  <group>
met

$$$$
>  <molecule>
CCCCCOc1nc2c(c(=O)n(C)c(=O)n2C)n1C

>  <group>
not met

$$$$
>  <molecule>
CCc1ccccc1NC(=O)COc1ccc(Cl)cc1

>  <group>
not met

$$$$
>  <molecule>
CCCCCCc1cc2cc(C(=O)Nc3nc(C45CC6CC(CC(C6)C4)C5)cs3)c(=O)oc2cc1O

>  <group>
met

$$$$
>  <molecule>
COc1ccc(N2CCN(CC(O)COc3ccc(Cl)cc3)CC2)cc1 (stereo unspecified)

>  <group>
met

$$$$
>  <molecule>
CC(=O)c1sc2c(c1OC(=O)c1ccco1)c(=O)n(-c1ccccc1)c(=S)n2-c1ccccc1

>  <group>
met

$$$$
